Origin of values: paper PMC7587356

- experimental target: SARS-CoV-2 3CLpro (Severe acute respiratory syndrome coronavirus 2)
- assay: biochemical
- Assay type: biochemical
- condition set: LOPAC1280 primary screen with protease, 5 µM compound, replicate 1
Recorded measurements of Replicate_1 (LOPAC_screen_w_protease), one per entry
A bare number is all that is needed in reply.

Here are 10 molecules together with their reported answers.
- molecule: "Nc1nc(Cl)nc2c1ncn2[C@@H]1O[C@H](COP(=O)(O)OP(=O)(O)OP(=O)(O)O)C(O)C1O (stereo in doubt)"
  Replicate_1 (LOPAC_screen_w_protease): 3.171
- molecule: "COc1ccc2[nH]cc(CCN)c2c1.Cl [O-Methylserotonin hydrochloride]"
  Replicate_1 (LOPAC_screen_w_protease): 3.3171
- molecule: "COc1cc2c(CCNC(C)=O)c[nH]c2cc1Cl [6-Chloromelatonin]"
  Replicate_1 (LOPAC_screen_w_protease): 0.5069
- molecule: "OC[C@H]1NC[C@@H](O)[C@@H]1O [1,4-Dideoxy-1,4-imino-D-arabinitol]"
  Replicate_1 (LOPAC_screen_w_protease): 1.388
- molecule: "CC(C)Cc1ccc(C(C)C(=O)O)cc1 (racemic) [(±)-Ibuprofen]"
  Replicate_1 (LOPAC_screen_w_protease): 3.023
- molecule: "O=C(Nc1ccccc1)c1cc([N+](=O)[O-])ccc1Cl [GW9662]"
  Replicate_1 (LOPAC_screen_w_protease): 2.013
- molecule: "CCc1cc(Cl)c(O)c(C(=O)NC[C@@H]2CCCN2CC)c1OC.Cl [S-(-)-Eticlopride hydrochloride]"
  Replicate_1 (LOPAC_screen_w_protease): 2.376
- molecule: "NC(=S)c1ccc[n+]([C@@H]2O[C@@H](COP(=O)([O-])OP(=O)(O)OC[C@H]3O[C@@H](n4cnc5c(N)ncnc54)C(OP(=O)([O-])O)[C@H]3O)C(O)C2O)c1.[Na+] (stereo partly drawn) [Thio-NADP sodium]"
  Replicate_1 (LOPAC_screen_w_protease): 2.439
- molecule: "Br.Br.N=C(N)SCCc1cccc(CCSC(=N)N)c1 [1,3-PBIT dihydrobromide]"
  Replicate_1 (LOPAC_screen_w_protease): 1.3545
- molecule: "NCCCP(=O)(O)O [3-Aminopropylphosphonic acid]"
  Replicate_1 (LOPAC_screen_w_protease): 3.261

The reported value for N=C(N)NC(CCC(=O)O)C(=O)O (stereo not drawn) [alpha-Guanidinoglutaric acid] in terms of Replicate_1 (LOPAC_screen_w_protease) is 2.352

The reported value for Cl.N[C@@H](CCC(=O)O)C(=O)O [L-Glutamic acid hydrochloride] in terms of Replicate_1 (LOPAC_screen_w_protease) is 1.529

The reported value for Br.CO[C@H]1CC=C2CCN3CCC4=C(CC(=O)OC4)[C@]23C1 [Dihydro-beta-erythroidine hydrobromide] in terms of Replicate_1 (LOPAC_screen_w_protease) is 1.621

The reported value for N.N.N.Nc1ncnc2c1ncn2C1OC(COP(=O)(O)OP(=O)(O)OP(=O)(O)OP(=O)(O)OC[C@H]2O[C@@H](n3cnc4c(N)ncnc43)C(O)C2O)[C@@H](O)C1O (stereo in doubt) in terms of Replicate_1 (LOPAC_screen_w_protease) is 3.71

The reported value for Cl.N=C(N)NC(=N)Nc1cccc(Cl)c1 in terms of Replicate_1 (LOPAC_screen_w_protease) is 2.329

The reported value for CCCCCCCCCCCCCCC[C@H](O)[C@H](N)CO (racemic) [DL-erythro-Dihydrosphingosine] in terms of Replicate_1 (LOPAC_screen_w_protease) is 4.536

---

- experimental target: UniProt P0DTD1
- assay: biochemical
- Format: biochemical
- Set-up: unit not given here
- condition set: sheet LOPAC_screen_w_protease; LOPAC1280 at 5 µM; replicate 2
quantity name: Replicate_2
A bare number is all that is needed in reply.

- compound: "O=C1CCC(N2C(=O)c3ccccc3C2=O)C(=O)N1 (racemic) [(±)-Thalidomide]"
  Replicate_2: 2.003
- compound: "CCOC(=O)c1ncn2c1[C@@H]1CCCN1C(=O)c1cc(OC)ccc1-2"
  Replicate_2: 1.155
- compound: "NCC(CP(=O)(O)O)c1ccc(Cl)cc1 (stereo not shown)"
  Replicate_2: 2.606
- compound: "NC(N)=NOCC[C@H](N)C(=O)O.O=S(=O)(O)O [L-Canavanine sulfate]"
  Replicate_2: 0.9625
- compound: "CC(C)(CO)Cc1cc(C(C)(C)C)c(O)c(C(C)(C)C)c1"
  Replicate_2: 1.5
- compound: "Cl.O[Si](CCCN1CCCCC1)(c1ccc(F)cc1)C1CCCCC1 (stereo not shown)"
  Replicate_2: -0.06894

Turning now to a further record.
The reported value for NC(CCP(=O)(O)O)C(=O)O (racemic) [(±)-2-Amino-4-phosphonobutyric acid] in terms of Replicate_2 is -0.351

---

- experimental target: SARS-CoV-2 3CLpro (Severe acute respiratory syndrome coronavirus 2, UniProt P0DTD1)
- assay: biochemical
- Assay type: biochemical
- condition set: 4 h, sheet LOPAC_screen_w_protease; LOPAC1280 primary screen at 5 µM, with protease; replicate 1; read-out: Replicate_1
Recorded measurements of inhibition at 5 µM, one per entry
# output: bare number, implied unit %

Here are 3 compounds together with their reported answers.
- compound: "COc1ccc(Cl)cc1C(=O)NCCc1ccc(S(=O)(=O)NC(=O)NC2CCCCC2)cc1 [Glibenclamide]"
  inhibition at 5 µM / %: 1.31
- compound: "CC(=O)C(C)=O [2,3-Butanedione]"
  inhibition at 5 µM / %: 1.88
- compound: "NC(=O)c1ccccc1 [Benzamide]"
  inhibition at 5 µM / %: 1.21

Turning now to a further record.
The reported value for NC(=O)CC[C@H](N)C(=O)O [L-Glutamine] in terms of inhibition at 5 µM is 2.13

---

Recorded measurements of mean, one per entry
- experimental target: SARS-CoV-2 3CLpro (Severe acute respiratory syndrome coronavirus 2)
- assay: biochemical
- Type: biochemical
- Parameters: unit not given here
- condition set: sheet LOPAC_screen_w_protease; LOPAC1280 at 5 µM; mean of two replicates

Here are 2 molecules together with their reported answers.
- molecule: "CC(Oc1ccc(Oc2cnc3ccc(Cl)cc3n2)cc1)C(=O)O (stereo not drawn)"
  mean: 1.32
- molecule: "C[C@]12CCC(=O)C=C1CC[C@@H]1[C@@H]2[C@@H](O)C[C@@]2(C)[C@H]1CC[C@]2(O)C(=O)COC(=O)CCC(=O)[O-].[Na+] [Hydrocortisone 21-hemisuccinate sodium]"
  mean: 1.066

The reported value for C[N+](C)(C)CCCCCCCCCC[N+](C)(C)C.[Br-].[Br-] [Decamethonium dibromide] in terms of mean is 1.23

---

- experimental target: SARS-CoV-2 3CLpro (Severe acute respiratory syndrome coronavirus 2, UniProt P0DTD1)
- assay: biochemical
- Format: biochemical
- condition set: 4 h, sheet LOPAC_screen_w_protease; primary screen with protease, compound at 5 µM; mean of two replicates; read-out: mean
Where a name gives a salt, the structure may show the parent alone.
Recorded measurements of inhibition at 5 µM, one per entry
# output: bare number, implied unit %

- molecule: "CN1[C@@H]2CC[C@H]1C[C@@H](OC(c1ccccc1)c1ccccc1N)C2 (stereo partly drawn)"
  experimental value: 3.04
- molecule: "COC(=O)[C@H]1[C@H]2C[C@H]3c4[nH]c5ccccc5c4CCN3C[C@H]2CC[C@@H]1O [Rauwolscine hydrochloride]"
  experimental value: 3.1

Turning now to a further record.
Value sought: inhibition at 5 µM, system SARS-CoV-2 3CLpro (Severe acute respiratory syndrome coronavirus 2, UniProt P0DTD1), item N[C@H]1CON=C1O . Result: 3.14

---

Recorded measurements of log10 of EC50, one per entry
- experimental target: SARS-CoV-2 3CLpro (Severe acute respiratory syndrome coronavirus 2, UniProt P0DTD1)
- assay: biochemical
- Format: biochemical
- condition set: with 0.01% Triton X-100; mean ± SD of triplicate; 4 h, 30 °C; read-out: A) EC50 with Triton X-100
log10 EC50, µM

Here are 4 molecules together with their reported answers.
- molecule: "Oc1ccc2c3c1O[C@H]1c4[nH]c5c(c4C[C@@]4(O)[C@@H](C2)N(CC2CC2)CC[C@]314)C[C@@]1(O)[C@H]2Cc3ccc(O)c4c3[C@@]1(CCN2CC1CC1)[C@H]5O4"
  log10 of EC50: 0.72
- molecule: "N=C(N)NCCSSCCNC(=N)N"
  log10 of EC50: 0.77
- molecule: "N.S=C(S)N1CCCC1"
  log10 of EC50: 0.09
- molecule: "Cc1ccc(S(=O)(=O)N[C@@H](Cc2ccccc2)C(=O)CCl)cc1"
  log10 of EC50: 0.24

Turning now to a further record.
The reported value for O=C(N[C@@H](Cc1ccccc1)C(=O)CCl)OCc1ccccc1 in terms of log10 of EC50 is -0.63
